Reported normalized growth values for a set of molecules
EXPERIMENT: chemical genetic growth profiling, strain panel (AID 1159580);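 note: tested at 20 µM; growth read once vehicle control cultures reached saturation at 30 °C; 1 = growth at the plate median or of vehicle wells; lower values mean less growth of the strain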
RUN PARAMETERS: S. cerevisiae deletion strains, growth OD, locus YLR262C, strain YPT6, stronger effect = lower value
The whole screen tested about 5,500 compounds, of which about 2,000 (36%) were called active. Roughly 18% stayed inconclusive and do not appear here. The list shows a part of the results.
// return a plain number; no unit text

What measured normalized growth goes with O=C(O)c1cc2cc(Cl)ccc2[nH]1 ?
1.06

What measured normalized growth goes with Cc1c(-n2cccc2)cc2c(c1[N+](=O)[O-])C(C)(C)CC2(C)C ?
1.07

What measured normalized growth goes with CCOC(=O)c1c(Nc2ccccc2)sc([N+](=O)[O-])c1N ?
0.965

Further cases:
What measured normalized growth goes with CC1=C2CCC3C(CC[C@]4(C)C(=O)CCC34)[C@@]2(C)CCC1=O (stereo partly drawn) ?
0.613

What measured normalized growth goes with O=C1OC(=O)C2C3CCC(O3)C12 (stereo not drawn) ?
1.06

What measured normalized growth goes with CCCCC(=O)N(Cc1ccc(-c2ccccc2-c2nn[nH]n2)cc1)[C@H](C(=O)O)C(C)C ?
0.981

What measured normalized growth goes with CC(C)=CCC1=C(O)c2ccccc2C(=O)C1=O ?
0.733

What measured normalized growth goes with S=C(NCc1ccco1)Nc1ccc(Oc2ccc(Cl)cc2)cc1 ?
0.463
